Molecular target: PIK3C3 (human) (UniProt Q8NEB9)
Sequence (Q8NEB9 whole entry, looked up): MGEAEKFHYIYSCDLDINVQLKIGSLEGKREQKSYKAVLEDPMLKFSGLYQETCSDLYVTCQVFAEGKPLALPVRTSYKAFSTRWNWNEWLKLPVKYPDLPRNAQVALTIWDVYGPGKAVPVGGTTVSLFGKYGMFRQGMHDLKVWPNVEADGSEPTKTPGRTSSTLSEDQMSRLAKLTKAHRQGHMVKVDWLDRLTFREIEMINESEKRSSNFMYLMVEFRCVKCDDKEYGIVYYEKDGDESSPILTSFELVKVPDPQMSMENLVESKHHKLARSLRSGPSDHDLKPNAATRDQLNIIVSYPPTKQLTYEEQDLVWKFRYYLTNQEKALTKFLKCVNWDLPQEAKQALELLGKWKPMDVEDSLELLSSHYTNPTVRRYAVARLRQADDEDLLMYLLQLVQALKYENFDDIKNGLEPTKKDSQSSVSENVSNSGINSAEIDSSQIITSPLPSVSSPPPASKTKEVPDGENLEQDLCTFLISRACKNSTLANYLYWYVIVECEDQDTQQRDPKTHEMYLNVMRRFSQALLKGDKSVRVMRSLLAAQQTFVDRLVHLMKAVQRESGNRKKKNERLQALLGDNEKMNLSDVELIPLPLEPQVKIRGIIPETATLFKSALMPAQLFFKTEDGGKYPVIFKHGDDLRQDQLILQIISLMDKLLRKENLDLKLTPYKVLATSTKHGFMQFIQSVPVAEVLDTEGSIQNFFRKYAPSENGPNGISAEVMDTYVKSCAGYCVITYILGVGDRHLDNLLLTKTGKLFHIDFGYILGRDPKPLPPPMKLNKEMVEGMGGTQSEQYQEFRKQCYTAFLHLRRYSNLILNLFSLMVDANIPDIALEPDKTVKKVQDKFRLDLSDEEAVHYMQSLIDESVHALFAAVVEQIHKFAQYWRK
property_measured: IC50 (µM)
The answer is to be given in µM; state only the numeric part.

Recorded IC50 of "Cc1cc([C@@H](C)Nc2ccccc2C(=O)O)c2nc(N3CCOCC3)cc(=O)n2c1" , please. 3.39

----------
Biological target: PIK3C2A (human) (UniProt O00443)
Sequence (O00443 whole entry, looked up): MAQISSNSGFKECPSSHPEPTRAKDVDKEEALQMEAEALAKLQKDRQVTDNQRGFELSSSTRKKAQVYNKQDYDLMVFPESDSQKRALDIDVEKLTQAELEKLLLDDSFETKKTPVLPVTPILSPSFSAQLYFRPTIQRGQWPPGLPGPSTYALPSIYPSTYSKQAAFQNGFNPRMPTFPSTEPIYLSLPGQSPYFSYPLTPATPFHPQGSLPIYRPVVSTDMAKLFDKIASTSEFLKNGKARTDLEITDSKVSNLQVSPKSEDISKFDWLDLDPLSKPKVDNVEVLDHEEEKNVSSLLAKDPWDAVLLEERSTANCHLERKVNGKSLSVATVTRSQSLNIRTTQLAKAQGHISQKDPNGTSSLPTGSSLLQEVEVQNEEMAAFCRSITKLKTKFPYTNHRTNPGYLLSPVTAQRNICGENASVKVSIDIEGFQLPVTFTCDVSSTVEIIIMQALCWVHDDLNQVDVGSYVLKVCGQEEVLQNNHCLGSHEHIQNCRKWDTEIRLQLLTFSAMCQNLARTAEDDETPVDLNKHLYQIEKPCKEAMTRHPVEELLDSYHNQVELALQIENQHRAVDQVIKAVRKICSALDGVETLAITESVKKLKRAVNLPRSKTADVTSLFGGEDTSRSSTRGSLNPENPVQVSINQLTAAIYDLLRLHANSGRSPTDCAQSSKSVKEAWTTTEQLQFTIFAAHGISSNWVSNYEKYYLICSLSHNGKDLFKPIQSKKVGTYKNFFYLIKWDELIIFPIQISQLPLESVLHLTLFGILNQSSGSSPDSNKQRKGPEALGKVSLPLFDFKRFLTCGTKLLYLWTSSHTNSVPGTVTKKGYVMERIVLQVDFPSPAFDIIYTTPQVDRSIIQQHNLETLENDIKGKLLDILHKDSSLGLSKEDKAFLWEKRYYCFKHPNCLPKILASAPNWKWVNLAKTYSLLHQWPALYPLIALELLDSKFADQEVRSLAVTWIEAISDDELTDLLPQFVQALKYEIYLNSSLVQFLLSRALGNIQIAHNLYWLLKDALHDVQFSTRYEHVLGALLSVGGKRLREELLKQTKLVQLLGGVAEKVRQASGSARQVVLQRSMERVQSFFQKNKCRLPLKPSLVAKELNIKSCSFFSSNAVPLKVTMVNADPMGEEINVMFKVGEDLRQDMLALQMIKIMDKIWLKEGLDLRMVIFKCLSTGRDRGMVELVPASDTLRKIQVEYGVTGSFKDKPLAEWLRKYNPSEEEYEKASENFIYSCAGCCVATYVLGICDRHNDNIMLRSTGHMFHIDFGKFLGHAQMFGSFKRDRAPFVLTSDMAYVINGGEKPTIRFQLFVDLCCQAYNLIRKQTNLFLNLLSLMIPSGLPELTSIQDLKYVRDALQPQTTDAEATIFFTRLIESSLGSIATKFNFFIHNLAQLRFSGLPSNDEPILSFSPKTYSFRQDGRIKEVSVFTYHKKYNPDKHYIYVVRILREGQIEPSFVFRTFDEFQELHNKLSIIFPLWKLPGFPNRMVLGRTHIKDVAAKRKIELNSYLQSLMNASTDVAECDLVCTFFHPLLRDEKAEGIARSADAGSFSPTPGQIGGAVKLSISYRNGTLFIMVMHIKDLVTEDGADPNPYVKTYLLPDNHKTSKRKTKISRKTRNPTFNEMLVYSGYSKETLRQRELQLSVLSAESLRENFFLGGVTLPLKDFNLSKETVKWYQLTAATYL
Assay: SelectScreen, TR FRET
property_measured: IC50

Suppose we examine the compound "Cc1cc([C@@H](C)Nc2ccccc2C(=O)O)c2nc(N3CCOCC3)cc(=O)n2c1" ; what IC50 value has been reported? > 1000 nM

----------
Target: UniProtKB Q9UBF8
Sequence (Q9UBF8 whole entry, looked up): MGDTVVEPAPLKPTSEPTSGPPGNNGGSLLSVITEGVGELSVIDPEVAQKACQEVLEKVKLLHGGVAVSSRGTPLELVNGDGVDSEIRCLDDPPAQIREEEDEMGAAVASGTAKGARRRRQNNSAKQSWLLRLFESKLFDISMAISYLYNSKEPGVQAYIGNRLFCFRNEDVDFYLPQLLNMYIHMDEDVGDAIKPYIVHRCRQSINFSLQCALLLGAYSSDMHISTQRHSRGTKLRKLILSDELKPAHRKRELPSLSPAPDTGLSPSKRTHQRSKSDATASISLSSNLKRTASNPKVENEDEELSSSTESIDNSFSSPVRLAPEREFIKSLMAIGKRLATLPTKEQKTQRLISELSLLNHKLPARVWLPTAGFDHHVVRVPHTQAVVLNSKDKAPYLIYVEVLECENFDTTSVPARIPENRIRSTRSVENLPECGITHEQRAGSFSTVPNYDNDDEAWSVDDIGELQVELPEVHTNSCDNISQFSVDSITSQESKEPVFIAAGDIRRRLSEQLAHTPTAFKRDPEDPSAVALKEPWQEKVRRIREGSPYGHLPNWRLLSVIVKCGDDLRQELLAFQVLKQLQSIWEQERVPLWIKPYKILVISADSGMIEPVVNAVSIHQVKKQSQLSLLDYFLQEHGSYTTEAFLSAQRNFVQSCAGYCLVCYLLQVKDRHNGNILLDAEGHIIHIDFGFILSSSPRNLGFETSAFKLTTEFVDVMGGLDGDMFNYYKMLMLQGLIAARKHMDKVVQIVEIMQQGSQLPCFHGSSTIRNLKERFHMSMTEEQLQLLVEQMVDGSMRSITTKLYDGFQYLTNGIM
pIC50: −log10 of the molar value.
property_measured: pIC50

Could you share which pIC50 value was measured for "Cc1cc([C@@H](C)Nc2ccccc2C(=O)O)c2nc(N3CCOCC3)cc(=O)n2c1" ? < 5.00

----------
property_measured: IC50 (nM)
Give the value in nM but do not write nM after it.

Recorded IC50 for "Cc1cc([C@@H](C)Nc2ccccc2C(=O)O)c2nc(N3CCOCC3)cc(=O)n2c1" with PIK3C2B (human) (UniProt O00750), please? 54.1
